test system: Ehrlich; assay: Antitumor activity against mouse Ehrlich ascites carcinoma cells xenografted in Swiss A mouse assessed as inhibition of tumor growth at 1 mg/kg, ip administered five doses in alternate days measured after 16 days; assay type: functional; parameters: unit not given here; conditions: route intraperitoneal
PARAMETER: Activity
Number, no unit, nothing else.

COMPOUND | Activity
COc1cc(C)cc2c1C(=O)C(N)=C(c1c(C)cc3c(c1OC)C(=O)C(N)=CC3=O)C2=O | 3.9
COc1cc(C)cc2c1C(=O)C=C(c1c(C)cc3c(c1OC)C(=O)C=CC3=O)C2=O | 2.9
Cc1cc(O)c2c(c1)C(=O)C(c1c(C)cc3c(c1O)C(=O)C=CC3=O)=CC2=O [DIOSPYRIN] | 4.3
COc1cc(C)cc2c1C(=O)C=C(c1c(C)cc3c(c1OC)C(=O)C(NCc1ccccc1)=CC3=O)C2=O | 3

Please give the measured Activity for this compound: CCOC(=O)CNC1=CC(=O)c2cc(C)c(C3=CC(=O)c4c(OC)cc(C)cc4C3=O)c(OC)c2C1=O
2.3

====

test system: Ehrlich; experiment: Cytotoxicity against mouse Ehrlich ascites carcinoma cells after 24 hrs by MTT assay; assay type: functional, cell-based
PARAMETER: IC50 (nM)
Just the number in nM, nothing appended.

Worked examples, 5 molecules total:
COMPOUND_STRUCTURE_STRING | DISPLAY_UNIT | IC50
COc1cc(C)cc2c1C(=O)C=C(c1c(C)cc3c(c1OC)C(=O)C(NC(C)=O)=CC3=O)C2=O | nM | 60
COc1cc(C)cc2c1C(=O)C=C(c1c(C)cc3c(c1OC)C(=O)C(Nc1ccc4ccccc4c1)=CC3=O)C2=O | nM | 240
COc1cc(C)cc2c1C(=O)C=C(c1c(C)cc3c(c1OC)C(=O)C(N)=CC3=O)C2=O | nM | 350
COc1cc(C)cc2c1C(=O)C=C(c1c(C)cc3c(c1OC)C(=O)C(NCc1ccccc1)=CC3=O)C2=O | nM | 1410
COc1cc(C)cc2c1C(=O)C=C(c1c(C)cc3c(c1OC)C(=O)C(Nc1ccc(Cl)cc1)=CC3=O)C2=O | nM | 250

What value of measured IC50 is listed for COc1cc(C)cc2c1C(=O)C(N)=C(c1c(C)cc3c(c1OC)C(=O)C(N)=CC3=O)C2=O ?
370

# IC50 lookup, item CCOC(=O)CNC1=CC(=O)c2cc(C)c(C3=CC(=O)c4c(OC)cc(C)cc4C3=O)c(OC)c2C1=O
90

====

Measured pIC50 of individual entries
test system: PBMC; assay: Cytotoxicity against human PBMC cells after 24 hrs by MTT assay; assay type: cell-based
# pIC50 = -log10(concentration in molar units)

Sample records with pIC50:
COMPOUND_STRUCTURE_STRING | pIC50
COc1cc(C)cc2c1C(=O)C=C(c1c(C)cc3c(c1OC)C(=O)C(NC(C)=O)=CC3=O)C2=O | 4.06
COc1cc(C)cc2c1C(=O)C=C(c1c(C)cc3c(c1OC)C(=O)C(Nc1ccc4ccccc4c1)=CC3=O)C2=O | 4.13
CCOC(=O)CNC1=CC(=O)c2cc(C)c(C3=CC(=O)c4c(OC)cc(C)cc4C3=O)c(OC)c2C1=O | 4.02
COc1cc(C)cc2c1C(=O)C(N)=C(c1c(C)cc3c(c1OC)C(=O)C(N)=CC3=O)C2=O | 4.39

Note: attention shifts to another entry.
Name the recorded pIC50 for COc1cc(C)cc2c1C(=O)C=C(c1c(C)cc3c(c1OC)C(=O)C(Nc1ccc(Cl)cc1)=CC3=O)C2=O .
4.35
